Where do the numbers come from? From the supplement of paper PMC9663587.

- Test system: MDAMB361
- procedureText: area over the GR curve, 72 h; higher = more effect;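 also: Dye Drop or Deep Dye Drop imaging of viable cells in 384-well plates (Hoechst nuclei, LIVE/DEAD dye), nine half-log doses, GR normalized to DMSO controls and time-zero plates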
Output true for area over the GR curve not less than 0.5 GR; output false otherwise.

Incoming: Decide: is the reported value of area over the GR curve for CC(C)NC[C@@H](C(=O)N1CCN(c2ncnc3c2[C@H](C)C[C@H]3O)CC1)c1ccc(Cl)cc1 [Ipatasertib/GDC0068] (max 10 µM) equal to or greater than 0.5 GR?
Outgoing: false

Incoming: Decide: is the reported value of area over the GR curve for O=C1NC(=NCc2cccs2)SC1=Cc1ccc2ncccc2c1 [R0-3306] (max 10 µM) equal to or greater than 0.5 GR?
Outgoing: false

Incoming: Decide: is the reported value of area over the GR curve for Cc1nc(NC(=O)N2CCC[C@H]2C(N)=O)sc1-c1ccnc(C(C)(C)C(F)(F)F)c1 [Alpelisib/BYL719] (max 10 µM) equal to or greater than 0.5 GR?
Outgoing: true

Incoming: Decide: is the reported value of area over the GR curve for CO[C@@H](C)Cn1c(=O)n(C)c2cnc3ccc(-c4cncc(C(C)(C)O)c4)cc3c21 (max 10 µM) equal to or greater than 0.5 GR?
Outgoing: true

Incoming: Decide: is the reported value of area over the GR curve for CN(C)C(=O)c1cc2cnc(Nc3ccc(N4CCNCC4)cn3)nc2n1C1CCCC1 [LEE011/Ribociclib] (max 10 µM) equal to or greater than 0.5 GR?
Outgoing: true

Incoming: Decide: is the reported value of area over the GR curve for CC[C@@]1(O)C(=O)OCc2c1cc1n(c2=O)Cc2cc3c(CN(C)C)c(O)ccc3nc2-1 [Topotecan] (max 10 µM) equal to or greater than 0.5 GR?
Outgoing: true

###

- Test system: PDX1258
- procedureText: GRmax, 72 h; higher = less effect;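 also: breast cell lines in 384-well plates, nine doses across a 10^4 range, Dye Drop imaging of viable cells vs DMSO and time-zero plates, GR 0 means no net growth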
assayMetric: GRmax, 72 h (GR)
Use GR as the unit, but write only the number.

Recorded result, NC1(C(=O)N[C@@H](CCO)c2ccc(Cl)cc2)CCN(c2nc[nH]c3nccc2-3)CC1 [AZD5363] (max 10 µM) , GRmax, 72 h: 0.321

Recorded result, CO[C@H]1C[C@@H]2CC[C@@H](C)[C@@](O)(O2)C(=O)C(=O)N2CCCC[C@H]2C(=O)O[C@H]([C@H](C)C[C@@H]2CC[C@@H](OCCO)[C@H](OC)C2)CC(=O)[C@H](C)/C=C(\C)[C@@H](O)[C@@H](OC)C(=O)[C@H](C)C[C@H](C)/C=C/C=C/C=C/1C [Everolimus] (max 10 µM) , GRmax, 72 h: 0.631

Recorded result, CS(=O)(=O)N1CCN(Cc2cc3nc(-c4cccc5[nH]ncc45)nc(N4CCOCC4)c3s2)CC1 [Pictilisib/GDC0941] (max 10 µM) , GRmax, 72 h: 0.0518

Recorded result, CN1CCN(C(=O)c2ccc3cc(CCNc4ncnc5ccc(C#N)cc45)ccc3c2)CC1 [senexin b] (max 10 µM) , GRmax, 72 h: 0.603

Recorded result, CN(C)C/C=C/C(=O)Nc1ccc(O[C@@H]2CCC[C@@H](Nc3ncc(Cl)c(-c4c[nH]c5ccccc45)n3)C2)cc1 [BSJ-01-175] (max 10 µM) , GRmax, 72 h: -0.914

Recorded result, CCNC(=O)c1noc(-c2cc(C(C)C)c(O)cc2O)c1-c1ccc(CN2CCOCC2)cc1 [Luminespib/NVP-AUY922] (max 1 µM) , GRmax, 72 h: -0.29

Recorded result, COc1cc(N2CCN(C)CC2)ccc1Nc1ncc2c(n1)N(C)c1ccccc1C(=O)N2CC(F)(F)F , GRmax, 72 h: 1.2

Recorded result, COc1cccc(OCCCN)c1-c1cc(Nc2cnc(C#N)cn2)n[nH]1 , GRmax, 72 h: -0.457

Recorded result, Nc1cc(C(F)(F)F)c(-c2cc(N3CCOCC3)nc(N3CCOCC3)n2)cn1 [Buparlisib/NVP-BKM120] (max 10 µM) , GRmax, 72 h: -0.392

Recorded result, CC[C@@]1(O)C(=O)OCc2c1cc1n(c2=O)Cc2cc3c(CN(C)C)c(O)ccc3nc2-1 [Topotecan] (max 10 µM) , GRmax, 72 h: -0.457

Recorded result, COc1cccc2c1C(=O)c1c(O)c3c(c(O)c1C2=O)C[C@@](O)(C(=O)CO)C[C@@H]3O[C@H]1C[C@H](N)[C@H](O)[C@H](C)O1 [Doxorubicin] (max 3.162 µM) , GRmax, 72 h: -0.493

Recorded result, CN(C)CC[C@H](CSc1ccccc1)Nc1ccc(S(=O)(=O)NC(=O)c2ccc(N3CCN(Cc4ccccc4-c4ccc(Cl)cc4)CC3)cc2)cc1[N+](=O)[O-] [ABT-737] (max 10 µM) , GRmax, 72 h: 0.758
